For each record, write down the corresponding cell viability.
# Tested on: MOLM14
# assay-notes: cell viability relative to vehicle control; higher = less cytotoxic;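 note: after 48 h exposure read by CellTiter-Glo luminescence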
# condition-info: 10 µM; SRSF2 genotype: SRSF2 wt/wt
Quick note: unit goes after the number.

Reference set, count: 6
Query: Item CC[C@H]1OC(=O)[C@H](C)[C@@H](O[C@H]2C[C@@](C)(OC)[C@@H](O)[C@H](C)O2)[C@H](C)[C@@H](O[C@@H]2O[C@H](C)C[C@H](N(C)C)[C@H]2O)[C@](C)(O)C[C@@H](C)CN(C)[C@H](C)[C@@H](O)[C@]1(C)O [Azithromycin Dihydrate] : provide cell viability
Reply: 93.3%

Query: Item C[C@@H]1[C@H]2c3cc4c(cc3O[C@@]35OCOC3=CC(=O)[C@H](C[C@H]1C)[C@@H]25)OCO4 : provide cell viability
Reply: 94.9%

Query: Item CCCC(CCC)C(N)=O [Valpromide] : provide cell viability
Reply: 99.5%

Query: Item CCOC(=O)c1ccc(O)c(OC)c1 [Ethyl Vanillate] : provide cell viability
Reply: 104%

Query: Item CC(C)(O)CC(=O)NCCn1ccc2ncnc(Nc3ccc(Oc4cccc(C(F)(F)F)c4)c(Cl)c3)c21 : provide cell viability
Reply: 79.4%

Query: Item CCNC1(C(N)=O)CCN(c2ncnc3c2nc(-c2ccccc2Cl)n3-c2ccc(Cl)cc2)CC1 : provide cell viability
Reply: 84.3%

Please give cell viability for each item listed below.
1. CCC[C@H](Nc1nc(-c2ccc(NC(=O)NCC)c(OC)c2)ncc1C)c1cccnc1
2. Cc1cccc(CC(=O)N2CCc3c2ccc(-c2cn(C)c4ncnc(N)c24)c3F)n1

Reply:
1. 1.12%
2. 93.8%

###

# Test system: MARIMO
# assay-notes: cell viability relative to vehicle control; higher = less cytotoxic
# condition-info: 10 µM; SRSF2 genotype: SRSF2 wt/wt
Structures can show the parent of a compound that is named as a salt.
recorded-endpoint: cell viability (%)
Answers are plain numbers, in %.

Reference set, count: 4
Query: Please report cell viability with MARIMO for item CNc1ccc([N+](=O)[O-])c(Nc2ccc3[nH]ncc3c2)n1 .
Reply: 60

Query: Please report cell viability with MARIMO for item CN1CC2c3ccccc3Oc3ccc(Cl)cc3C2C1 (configuration not stated) [Asenapine maleate] .
Reply: 78.8

Query: Please report cell viability with MARIMO for item CC1(C)[C@@H](O[C@H]2O[C@H](C(=O)O)[C@@H](O)[C@H](O)[C@H]2O[C@@H]2O[C@H](C(=O)O)[C@@H](O)[C@H](O)[C@H]2O)CC[C@]2(C)[C@H]3C(=O)C=C4[C@@H]5C[C@@](C)(C(=O)O)CC[C@]5(C)CC[C@@]4(C)[C@]3(C)CC[C@@H]12 [Ammonium Glycyrrhizate] .
Reply: 101

Query: Please report cell viability with MARIMO for item N[C@@]1(C(=O)O)CS(=O)(=O)[C@H]2[C@H](C(=O)O)[C@H]21 .
Reply: 105

Please give cell viability for each item listed below.
1. O=C(O)c1cc(=O)[nH]c(=O)[nH]1
2. Cc1nc(Nc2ncc(C(=O)Nc3c(C)cccc3Cl)s2)cc(N2CCN(CCO)CC2)n1 [Dasatinib]
3. Cn1c(N2CCCCS2(=O)=O)nc(C(=O)NCc2ccc(F)cc2)c(O)c1=O

Reply:
1. 101
2. 61.3
3. 115

###

For each record, write down the corresponding cell viability.
# System: MARIMO
# assay-notes: cell viability relative to vehicle control; higher = less cytotoxic
# condition-info: 10 µM; SRSF2 genotype: SRSF2 wt/wt
Answers are plain numbers, in %.

Reference set, count: 10
Query: Item CCOC(=O)C1=C(COCCN)NC(C)=C(C(=O)OC)C1c1ccccc1Cl (stereo not drawn) [Amlodipine (Norvasc)] : provide cell viability
Reply: 78.3

Query: Item CN1c2cc(O)c(N=NC(N)=O)cc2CC1S(=O)(=O)O (stereo not drawn) [Carbazochrome sodium sulfonate] : provide cell viability
Reply: 98.7

Query: Item Oc1cc(O)c2c(c1)OC(c1ccc(O)c(O)c1)C(O)C2 (single isomer, unassigned; (+)) [(+)-Catechin hydrate] : provide cell viability
Reply: 103

Query: Item NC(=O)/C(=C/n1cnc(-c2cc(C(F)(F)F)cc(C(F)(F)F)c2)n1)c1cncnc1 : provide cell viability
Reply: 17.5

Query: Item C[C@H]1Oc2cc(cnc2N)-c2c(nn(C)c2C#N)CN(C)C(=O)c2ccc(F)cc21 : provide cell viability
Reply: 91

Query: Item C[C@@H]1C[C@H]2[C@@H]3CCC4=CC(=O)C=C[C@]4(C)[C@@]3(F)[C@@H](O)C[C@]2(C)[C@@]1(O)C(=O)CO [Dexamethasone] : provide cell viability
Reply: 99.8

Query: Item C[N+]1(C)[C@@H]2C[C@@H](OC(=O)C(O)(c3cccs3)c3cccs3)C[C@H]1[C@@H]1O[C@@H]12 [Tiotropium Bromide hydrate] : provide cell viability
Reply: 107

Query: Item O.O=C([O-])c1ncccc1O.O=C([O-])c1ncccc1[O-].[H+].[O]=[V][OH] [VO-Ohpic trihydrate] : provide cell viability
Reply: 102

Query: Item Cc1cc(N2CCOCC2)cc2[nH]c(-c3c(NCC(O)c4cccc(Cl)c4)cc[nH]c3=O)nc12 (stereo not drawn) : provide cell viability
Reply: 31

Query: Item Clc1ccc(C(Cn2ccnc2)OCc2ccc(Sc3ccccc3)cc2)c(Cl)c1 (stereo not drawn) [Fenticonazole nitrate] : provide cell viability
Reply: 78

Please give cell viability for each item listed below.
1. CCCCCCC=CCCCCCCCc1cccc(O)c1C(=O)O [Ginkgolic Acid]
2. C=C(C)[C@@H]1CC[C@]2(C(=O)O[C@@H]3O[C@H](CO[C@@H]4O[C@H](CO)[C@@H](O[C@@H]5O[C@@H](C)[C@H](O)[C@@H](O)[C@H]5O)[C@H](O)[C@H]4O)[C@@H](O)[C@H](O)[C@H]3O)CC[C@]3(C)[C@H](CC[C@@H]4[C@@]5(C)CC[C@H](O[C@@H]6OC[C@H](O)[C@H](O)[C@H]6O[C@@H]6O[C@@H](C)[C@H](O)[C@@H](O)[C@H]6O)[C@@](C)(CO)[C@@H]5CC[C@]43C)[C@@H]12 [Anemoside B4]

Reply:
110
110

Query: Item COc1ccc(CCC(=O)Nc2nc3ccc(Cl)cc3s2)cc1OC : provide cell viability
Reply: 96.3

###

# Tested on: OCI-AML2
# assay-notes: cell viability relative to vehicle control; higher = less cytotoxic
# condition-info: 10 µM; SRSF2 genotype: wt/wt
recorded-endpoint: cell viability (%)
Answers are plain numbers, in %.

Please give cell viability for each item listed below.
1. CCC(C)C1OC2(CCC1C)CC1CC(CC=C(C)C(OC3CC(OC)C(OC4CC(OC)C(O)C(C)O4)C(C)O3)C(C)C=CC=C3COC4C(O)C(C)=CC(C(=O)O1)C34O)O2 (configuration not stated) [Ivermectin]
2. O=C1c2c(O)cc(O)cc2O[C@H](c2cc(O)c(O)c(O)c2)[C@H]1O [Dihydromyricetin (Ampeloptin)]
3. Cc1cc(Cn2cnc3c2CC(C(=O)O)N(C(=O)C(c2ccccc2)c2ccccc2)C3)ccc1N(C)C (configuration not stated)
4. CCC(C)(Oc1ccc(C2(c3ccc(OC(C)(CC)C(=O)O)cc3)CCCCC2)cc1)C(=O)O (configuration not stated) [Clinofibrate]
5. NC(=O)CCCSc1nc(N)nc(-c2c(Cl)cc3c4c(cccc24)COC3)n1
6. Cc1nnc(NS(=O)(=O)c2ccc(N)cc2)s1 [Sulfamethizole (Proklar)]
7. Nc1ccc(O)cc1 [4-Aminophenol]

Reply:
7.41
107
117
102
19.6
111
12

###

For each record, write down the corresponding cell viability.
# Test system: MOLM14
# assay-notes: cell viability relative to vehicle control; higher = less cytotoxic
# condition-info: 10 µM; SRSF2 genotype: SRSF2 wt/wt
Give bare numbers, in %.

Reference set, count: 5
Query: Item CCN1CCN(c2cc3c(cc2F)c(=O)c(C(=O)O)cn3C2CC2)CC1 : provide cell viability
Reply: 111

Query: Item COC(=O)CNC(=O)C(=O)OC : provide cell viability
Reply: 94.5

Query: Item COc1cccc(Nc2c(C(N)=O)cnc3c(C)cc(S(=O)(=O)c4cccc(C(=O)N(C)C)c4)cc23)c1 : provide cell viability
Reply: 103

Query: Item CC1=C[C@]2(O)O[C@@]3(CC2=C(C)C)[C@@H](C)CC[C@@H]13 : provide cell viability
Reply: 99

Query: Item CCCCCC1=C(C)CCC1=O [Dihydrojasmone] : provide cell viability
Reply: 105

Please give cell viability for each item listed below.
1. C[C@@H]1CC[C@@]2(OC1)O[C@H]1C[C@H]3[C@@H]4CC=C5C[C@@H](O)C[C@@H](O)[C@]5(C)[C@H]4CC[C@]3(C)[C@H]1[C@@H]2C
2. O=C(Nc1ccccc1-c1cn2c(CN3CC[C@@H](O)C3)csc2n1)c1ccc2ccccc2c1
3. CC(=C(CCOC(=O)C(C)C)SSC(CCOC(=O)C(C)C)=C(C)N(C=O)Cc1cnc(C)nc1N)N(C=O)Cc1cnc(C)nc1N (stereo in doubt)
4. O=C(Nc1cccnc1)c1cc(-c2ccnc(F)c2)ccc1OCc1ccccc1
5. CCCCCC(=O)O[C@]1(C(C)=O)CC[C@H]2[C@@H]3CCC4=CC(=O)CC[C@]4(C)[C@H]3CC[C@@]21C [Hydroxyprogesterone caproate]

Reply:
1. 110
2. 80.5
3. 90.8
4. 98.7
5. 21

Please give cell viability for each item listed below.
1. CCn1cc(C(=O)O)c(=O)c2ccc(C)nc21
2. O=C(C=Cc1ccccc1)NC(NC(=S)Nc1ccc(Cl)cc1)C(Cl)(Cl)Cl (stereo not drawn)

Reply:
[109, 96]

Please give cell viability for each item listed below.
1. CN(N=O)C(=O)NC1C(O)OC(CO)C(O)C1O (stereo not drawn) [Streptozotocin (STZ)]
2. O=C1Nc2ccc(I)cc2C1=Cc1cc(Br)c(O)c(Br)c1
3. COc1ccc(F)c(F)c1C(=O)c1cnc(NC2CCN(S(C)(=O)=O)CC2)nc1N
4. COc1ccc(C2CNC(=O)C2)cc1OC1CCCC1 (stereo not drawn) [Rolipram]

Reply:
103
93.8
0.27
103

Please give cell viability for each item listed below.
1. O=C1c2ccc(Nc3ccc(F)cc3F)cc2CCc2ccc(OC[C@H](O)CO)cc21 [Skepinone-L]
2. CCCCCCNC(=O)n1cc(F)c(=O)[nH]c1=O

Reply:
102
27.3
